Source of measurements: paper PMC7819943

study_system: OsSMF1 (Oryza sativa, UniProt Q6ZLB0 1-436)
Sequence: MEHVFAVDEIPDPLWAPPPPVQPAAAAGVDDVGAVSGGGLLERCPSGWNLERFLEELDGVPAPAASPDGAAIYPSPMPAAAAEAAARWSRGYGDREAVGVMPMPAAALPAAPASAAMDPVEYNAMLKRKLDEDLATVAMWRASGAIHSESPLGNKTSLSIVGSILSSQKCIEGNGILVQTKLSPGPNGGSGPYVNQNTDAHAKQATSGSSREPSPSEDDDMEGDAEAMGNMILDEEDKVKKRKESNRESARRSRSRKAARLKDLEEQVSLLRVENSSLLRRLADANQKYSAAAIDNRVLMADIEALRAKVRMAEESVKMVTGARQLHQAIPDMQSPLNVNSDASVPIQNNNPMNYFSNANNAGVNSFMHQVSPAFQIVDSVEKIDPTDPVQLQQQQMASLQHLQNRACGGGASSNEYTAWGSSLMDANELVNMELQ
assay_info: protein-binding microarray (RPBM); PBS, 2% BSA, 51.3 ng/ul salmon testes DNA, 50 uM zinc acetate, 200 nM TF, 25 C, 1 h; high values mean tight binding
assay_conditions: protein: recombinant; tags: N-terminal polyhistidine and DsRed monomer fusion (pET32a); chain copies: 2; label: CyDye5-dUTP incorporated in the synthesized complementary strand; 3' TTTTT single-stranded linker to array surface; dsDNA, one strand shown
In all, about 39,000 sequences were measured (“fluorescence intensity (a.u.)”: median about 4,300, highest 2% from about 39,000 on). This excerpt belongs to a sample that is enriched for the highest values.
Catalogue of sequences with associated binding signal

Below, each entry is followed by its recorded binding signal result.
biopolymer_sequence: TGCGATTGATTCGGTATTAGAGCCTGCATACGTGTCATCTCGGAGTCACCTAGTGCAG
result: 22100 fluorescence intensity (a.u.)
--
biopolymer_sequence: CGTTGGGCTCAAGGGGAGGGATATCTATCTAACAGTAACACGGAGTCACCTAGTGCAG
result: 4110 fluorescence intensity (a.u.)
--
biopolymer_sequence: GGGCTGGGGAAAATGATCGACTACTTTTAACCATTTCAGTCGGAGTCACCTAGTGCAG
result: 3420 fluorescence intensity (a.u.)
--
biopolymer_sequence: GCAGATCTTGACTATCTCCACGGGATATATACACGGCGGCCGGAGTCACCTAGTGCAG
result: 22300 fluorescence intensity (a.u.)

binding signal measured on `ATATTCCACCAAGCAAAAGCCACATCATGCTGTGCTGTGCCGGAGTCACCTAGTGCAG` = 6050 fluorescence intensity (a.u.)

Reported binding signal ( `TCTTCCTCAAAGTAAAATAGAAGCTAGGGCTAAGAGCCCACGGAGTCACCTAGTGCAG` ) = 65100 fluorescence intensity (a.u.)

binding signal reported for this sequence `CCCTCAAGGGCTCAAAACACTCAAACAGTTCTACATATATCGGAGTCACCTAGTGCAG` : 57600 fluorescence intensity (a.u.)

`TATAGCAAAGAAAAGTAAAATAAGAGGCATGAGCTCACGCCGGAGTCACCTAGTGCAG` has a reported binding signal of 37800 fluorescence intensity (a.u.)

binding signal recorded for this sequence, `CCTCGGGGAGGGCGTGGCAAGCGGCACGCGTGGCGGGGAGCGGAGTCACCTAGTGCAG` , is 5890 fluorescence intensity (a.u.)
